Please provide measured TD50 for the entries that follow.
Experimental Details: Rotorod Test, TD50
Test Context: in vivo
Description: The term convulsions is intended to mean the characteristic body movements which are associated with the group of chronic central nervous system disorders termed, epilepsies. These procedures are described in E. A. Swinyard, et al., Epilepsia, 19, 409 (1978), which is incorporated herein by reference. The TD50 is defined as the median minimal neurotoxic dose.
Give bare numbers, in mg/kg.

Some compounds with known TD50 results, for comparison:
CCC1(c2ccccc2)NC(=O)N(C)C1=O (stereo not drawn): 154
Cc1nn(C)c(N)c1C(=O)Nc1cccc(Cl)c1: 234

Record Cc1ccccc1NC(=O)c1c(C)nn(C)c1N . Reported TD50: 104

Taken from patent US4346097A.
